Source of measurements: patent US12258336B2

Target: Recombinant human SSAO protein (Homo sapiens, UniProt Q16853)
Construct: Eli Lilly (provided, not a catalogue product)
Sequence (Q16853 whole entry): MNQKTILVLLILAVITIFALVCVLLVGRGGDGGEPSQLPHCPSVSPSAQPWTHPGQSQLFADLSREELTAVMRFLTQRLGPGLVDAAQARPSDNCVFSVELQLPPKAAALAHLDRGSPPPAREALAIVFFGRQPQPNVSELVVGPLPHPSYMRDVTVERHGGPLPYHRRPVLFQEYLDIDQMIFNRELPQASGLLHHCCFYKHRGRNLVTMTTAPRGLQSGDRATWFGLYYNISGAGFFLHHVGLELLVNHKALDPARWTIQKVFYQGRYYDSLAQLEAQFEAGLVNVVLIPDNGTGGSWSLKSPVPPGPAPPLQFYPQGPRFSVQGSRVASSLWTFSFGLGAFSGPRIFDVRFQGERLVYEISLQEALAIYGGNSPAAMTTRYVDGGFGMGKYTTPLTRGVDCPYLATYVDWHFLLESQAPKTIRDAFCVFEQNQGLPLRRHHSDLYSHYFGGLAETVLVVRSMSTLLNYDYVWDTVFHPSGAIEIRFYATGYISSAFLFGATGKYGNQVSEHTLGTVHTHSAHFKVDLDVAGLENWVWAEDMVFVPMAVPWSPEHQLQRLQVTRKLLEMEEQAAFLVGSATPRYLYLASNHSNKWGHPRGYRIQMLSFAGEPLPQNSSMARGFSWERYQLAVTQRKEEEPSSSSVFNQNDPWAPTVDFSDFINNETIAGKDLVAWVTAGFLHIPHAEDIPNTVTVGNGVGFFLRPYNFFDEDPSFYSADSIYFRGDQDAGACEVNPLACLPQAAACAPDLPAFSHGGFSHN
Assay: In vitro inhibitory activity on SSAO/VAP-1 (MAO-Glo assay), human
Parameter IC50: see the listing below.

CC1(C)CN(c2ncc(OC/C(=C/F)CN)cn2)CCN1C1COC1; 10 to 50 nM
NC/C(=C\F)COc1cnc(N2CC3(COC3)C2)nc1; > 50 nM
CC1(C)CN(C2COC2)CCN1c1ncc(OC/C(=C/F)CN)cn1; 10 to 50 nM
NC/C(=C/F)COc1cnc(N2CCN(C3COC3)CC2)nc1; < 10 nM
NC/C(=C\F)COc1cnc(N2CCN(c3cnc(N4CCN(C5COC5)CC4)nc3)CC2)nc1; < 10 nM

Provide measured IC50 value, entry: NC/C(=C\F)COc1cnc(N2CC3CCC(C2)N3C2COC2)nc1
10 to 50 nM

Name the recorded IC50 of the molecule listed here: N#Cc1cc(OC/C(=C/F)CN)cnc1N1CCN(C2COC2)CC1
> 50 nM

###

Molecular target: Recombinant human MAO-A (Homo sapiens)
Sequence (P21397 1-527): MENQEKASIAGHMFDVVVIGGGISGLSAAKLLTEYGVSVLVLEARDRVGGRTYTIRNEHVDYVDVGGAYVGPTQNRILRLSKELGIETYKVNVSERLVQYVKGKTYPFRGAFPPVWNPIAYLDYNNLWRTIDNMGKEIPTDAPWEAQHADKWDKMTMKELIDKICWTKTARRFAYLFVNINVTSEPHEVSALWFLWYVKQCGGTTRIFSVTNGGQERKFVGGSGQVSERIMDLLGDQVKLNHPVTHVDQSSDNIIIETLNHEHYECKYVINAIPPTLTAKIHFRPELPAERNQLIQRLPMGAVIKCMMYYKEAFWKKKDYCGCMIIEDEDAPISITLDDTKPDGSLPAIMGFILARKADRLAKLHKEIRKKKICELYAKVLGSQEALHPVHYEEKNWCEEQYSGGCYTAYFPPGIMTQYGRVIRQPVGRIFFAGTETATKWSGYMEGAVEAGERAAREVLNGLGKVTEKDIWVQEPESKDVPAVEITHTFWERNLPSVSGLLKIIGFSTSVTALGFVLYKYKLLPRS
Test: Inhibitory activity on MAO-A
pIC50: −log10 of the molar value.
Let's look at some compounds and their measured pIC50.

CC1CN(c2ncc(OC/C(=C/F)CN)cn2)CC(C)N1C1COC1 (stereo not drawn); < 4.00
NC/C(=C\F)COc1cnc(N2CCC3(CC2)COC3)nc1; 4.00 to 5.70
NC/C(=C\F)COc1cnc(N2CC3(COC3)C2)nc1; 4.00 to 5.70
NC/C(=C/F)COc1cnc(N2CCN(C3COC3)CC2)nc1; 4.00 to 5.70

Quickly give me recorded pIC50 for CC1(C)CN(c2ncc(OC/C(=C/F)CN)cn2)CCN1C1COC1
< 4.00

Return pIC50 for the following compound: CC1(C)CN(C2COC2)CCN1c1ncc(OC/C(=C/F)CN)cn1
< 4.00
